Data origin: ChEMBL document CHEMBL1240446

Each record here notes measured MIC.
- Test system: Bacillus subtilis
- EXPERIMENTAL_PROTOCOL: Antibacterial activity against Bacillus subtilis ATCC 21216 after 24 hrs by micro-broth dilution method
- Format: functional
- MEASUREMENT_CONDITIONS: ATCC 21216, 24 h
OUTCOME_MEASURE: MIC

INSERT INTO assay_data (structure_smiles, target_system, measured_value) VALUES
  ('Fc1ccc(CN(CCn2cncn2)CCn2cncn2)c(F)c1.O=[N+]([O-])O', 'Bacillus subtilis', '32 µg/mL'),
  ('OCCN(CCO)Cc1ccc(Cl)cc1', 'Bacillus subtilis', '> 256 µg/mL'),
  ('Cl.Clc1ccc(CN(CCn2ccnc2)CCn2ccnc2)c(Cl)c1', 'Bacillus subtilis', '8 µg/mL'),
  ('Clc1ccc(CN(CCn2ccnc2)CCn2ccnc2)cc1Cl.O=[N+]([O-])O', 'Bacillus subtilis', '16 µg/mL'),
  ('Cl.Clc1ccc(CN(CCn2cncn2)CCn2cncn2)cc1Cl', 'Bacillus subtilis', '16 µg/mL'),
  ('Cl.Fc1ccc(CN(CCn2cncn2)CCn2cncn2)c(F)c1', 'Bacillus subtilis', '32 µg/mL'),
  ('Clc1ccccc1CN(CCn1ccnc1)CCn1ccnc1', 'Bacillus subtilis', '> 256 µg/mL'),
  ('Clc1cccc(CN(CCn2ccnc2)CCn2ccnc2)c1', 'Bacillus subtilis', '128 µg/mL'),
  ('Fc1ccc(CN(CCn2ccnc2)CCn2ccnc2)c(F)c1', 'Bacillus subtilis', '32 µg/mL'),
  ('OCCN(CCO)Cc1ccc(Cl)cc1Cl', 'Bacillus subtilis', '256 µg/mL'),
  ('Fc1ccc(CN(CCn2cnc3ccccc32)CCn2cnc3ccccc32)c(F)c1.O=[N+]([O-])O', 'Bacillus subtilis', '> 256 µg/mL'),
  ('OCCN(CCO)Cc1ccc(F)cc1F', 'Bacillus subtilis', '256 µg/mL');
